Reference for the values: patent US20230406865A1

Target: KDR kinase (Homo sapiens)
Construct: purchased Carna 08-191
Sequence (P35968 20-1356): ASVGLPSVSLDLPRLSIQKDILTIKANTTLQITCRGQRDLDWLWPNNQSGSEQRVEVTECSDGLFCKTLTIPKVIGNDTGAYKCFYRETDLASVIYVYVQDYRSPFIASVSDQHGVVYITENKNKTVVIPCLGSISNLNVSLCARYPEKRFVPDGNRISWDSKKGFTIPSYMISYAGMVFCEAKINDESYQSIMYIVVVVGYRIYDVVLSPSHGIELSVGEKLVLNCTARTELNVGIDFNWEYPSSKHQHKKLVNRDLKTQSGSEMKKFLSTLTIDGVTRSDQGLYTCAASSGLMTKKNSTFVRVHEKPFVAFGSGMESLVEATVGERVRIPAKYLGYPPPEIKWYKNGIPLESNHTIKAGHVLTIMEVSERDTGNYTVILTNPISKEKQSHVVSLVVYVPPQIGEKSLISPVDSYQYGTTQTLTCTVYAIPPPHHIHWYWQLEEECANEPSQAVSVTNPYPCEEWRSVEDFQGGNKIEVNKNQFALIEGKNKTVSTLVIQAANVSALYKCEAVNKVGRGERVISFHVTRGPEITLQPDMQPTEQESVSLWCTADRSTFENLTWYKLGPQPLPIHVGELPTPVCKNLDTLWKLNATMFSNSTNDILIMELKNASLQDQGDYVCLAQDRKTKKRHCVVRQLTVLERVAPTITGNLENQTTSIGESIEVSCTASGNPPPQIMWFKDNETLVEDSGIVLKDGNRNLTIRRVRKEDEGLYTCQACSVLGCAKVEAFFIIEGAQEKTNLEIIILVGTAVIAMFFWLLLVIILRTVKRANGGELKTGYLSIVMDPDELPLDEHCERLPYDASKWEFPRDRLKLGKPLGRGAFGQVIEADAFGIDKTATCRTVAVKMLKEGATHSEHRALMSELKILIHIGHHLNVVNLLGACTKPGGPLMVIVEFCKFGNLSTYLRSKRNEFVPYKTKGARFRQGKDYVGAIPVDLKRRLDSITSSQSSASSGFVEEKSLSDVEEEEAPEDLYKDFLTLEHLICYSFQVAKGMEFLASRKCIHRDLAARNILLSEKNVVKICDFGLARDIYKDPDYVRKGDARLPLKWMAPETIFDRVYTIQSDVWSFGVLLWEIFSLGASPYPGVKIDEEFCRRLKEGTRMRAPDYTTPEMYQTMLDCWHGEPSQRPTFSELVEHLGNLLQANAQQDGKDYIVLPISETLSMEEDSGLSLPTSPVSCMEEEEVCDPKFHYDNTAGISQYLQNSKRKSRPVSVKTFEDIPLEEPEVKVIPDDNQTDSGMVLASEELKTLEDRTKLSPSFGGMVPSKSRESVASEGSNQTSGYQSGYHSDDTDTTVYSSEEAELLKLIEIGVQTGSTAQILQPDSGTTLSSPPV
Experiment: HTRF kinase activity inhibition, KDR
Type: biochemical
Conditions: HTRF, ATP at Km
assay-metric: pIC50
pIC50 (log units): -log10 of the concentration in mol/L.

Ask | Please report the recorded pIC50 for "COc1ccc(CN2C3CC2CN(c2ccc(-c4cc(C#C[C@@H](C)O)cn5ncc(C#N)c45)cn2)C3)cn1" .
Reply | 7.62

Ask | What pIC50 value was documented for this compound, "COc1ccc(CN2C3CC2CN(c2ccc(-c4cc(OCC5(C#N)CCOCC5)cn5ncc(C#N)c45)cn2)C3)cn1" ?
Reply | 6.74

Ask | I am curious: what pIC50 value has been reported for "COc1ccc(CN2C3CC2CN(c2ccc(-c4cc(N5CC(C(C)(C)O)C5)cn5ncc(C#N)c45)cn2)C3)cn1" ?
Reply | 7.96

Ask | May I ask what pIC50 has been recorded for "COc1ncc(CN2C3CC2CN(c2ccc(-c4cc(C#C[C@@H](C)O)cn5ncc(C#N)c45)cn2)C3)cc1F" ?
Reply | 7.72

Ask | # pIC50 lookup, item "COc1ccc(CN2C3CC2CN(c2ccc(-c4cc(OCC5(C#N)CCC5)cn5ncc(C#N)c45)cn2)C3)cn1"
Reply | 6.67

Ask | Given "COc1ccc(CN2C3CC2CN(c2ccc(-c4cc(C#CC(C)(C)O)cn5ncc(C#N)c45)cn2)C3)cn1" , state its recorded pIC50.
Reply | 7.80

Ask | Item COc1ccc(CN2C3CC2CN(c2ccc(-c4cc(OCC5CCS(=N)(=O)CC5)cn5ncc(C#N)c45)cn2)C3)cn1 (stereo not shown) has what recorded pIC50?
Reply | 8.05
